- System: tubulin (bovine brain)
- Assay Procedure: tubulin polymerization end-point dOD, fold change relative to DMSO vehicle; higher = more polymerization (stabilization)
- Study Conditions: 50 µM; 60 min; 37 °C
Property Measured: tubulin polymerization end-point dOD (%)
Numeric only. Scale: %

Some solved entries appear below for comparison.
# Structure Smiles, tubulin polymerization end-point dOD / %
rows = [
    ("CCc1cc2cc(OC)ccc2nc1SCC(=O)Nc1ccccc1Cl", -96.6),
    ("CCS(=O)(=O)N1CCc2cc(C3=NN=C(NCc4ccc5c(c4)OCO5)SC3)ccc21", 227),
    ("CCOc1ccc(C(=O)N(Cc2cccs2)Cc2cc3cc(C)ccc3[nH]c2=O)cc1", 27.2),
    ("COc1ccc2nc(SCC(=O)Nc3ccccc3Br)c(C#N)cc2c1", 14.8),
]

Turning to the following compound.
Let me check: Cc1ccc(C(=O)Nc2nc3ccc(Oc4ccccc4)cc3s2)cn1 , system tubulin (bovine brain), measured tubulin polymerization end-point dOD is 15.6
